Where these numbers come from: patent US11957687B2

Experiment: Microsome stability assay, human liver microsomes
Assay type: in vitro ADME
Conditions: human, human liver microsomes, pooled; 1 μM compound, 0.5 mg/mL microsomal protein, NADPH, 37° C.; read-out: Microsome Stability Human liver microsomes Cl
Measured microsomal CLint at 1 μM values are reported for all entries that follow.
Write the value in µL/min/mg as a bare number.

molecule	assay metric	measurement unit	measured value
Cc1ccc2c(c1)OCCC2NC(=O)c1ccc(C(F)(F)F)[nH]c1=O (centres unmarked)	microsomal CLint at 1 μM	µL/min/mg	26.4

# ---- query molecule ----
Query: Answer with the recorded microsomal CLint at 1 μM of `CCC[C@@H]1C[C@@H](NC(=O)c2ccc(C(F)(F)F)[nH]c2=O)c2cc(C)ccc2N1` only.
Response: 17
